# ASSAYED_SYSTEM: furin, P09958;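 also: purified furin at 1:10 enzyme:substrate in 50 mM HEPES pH 7.5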
# Sequence (P09958 whole entry): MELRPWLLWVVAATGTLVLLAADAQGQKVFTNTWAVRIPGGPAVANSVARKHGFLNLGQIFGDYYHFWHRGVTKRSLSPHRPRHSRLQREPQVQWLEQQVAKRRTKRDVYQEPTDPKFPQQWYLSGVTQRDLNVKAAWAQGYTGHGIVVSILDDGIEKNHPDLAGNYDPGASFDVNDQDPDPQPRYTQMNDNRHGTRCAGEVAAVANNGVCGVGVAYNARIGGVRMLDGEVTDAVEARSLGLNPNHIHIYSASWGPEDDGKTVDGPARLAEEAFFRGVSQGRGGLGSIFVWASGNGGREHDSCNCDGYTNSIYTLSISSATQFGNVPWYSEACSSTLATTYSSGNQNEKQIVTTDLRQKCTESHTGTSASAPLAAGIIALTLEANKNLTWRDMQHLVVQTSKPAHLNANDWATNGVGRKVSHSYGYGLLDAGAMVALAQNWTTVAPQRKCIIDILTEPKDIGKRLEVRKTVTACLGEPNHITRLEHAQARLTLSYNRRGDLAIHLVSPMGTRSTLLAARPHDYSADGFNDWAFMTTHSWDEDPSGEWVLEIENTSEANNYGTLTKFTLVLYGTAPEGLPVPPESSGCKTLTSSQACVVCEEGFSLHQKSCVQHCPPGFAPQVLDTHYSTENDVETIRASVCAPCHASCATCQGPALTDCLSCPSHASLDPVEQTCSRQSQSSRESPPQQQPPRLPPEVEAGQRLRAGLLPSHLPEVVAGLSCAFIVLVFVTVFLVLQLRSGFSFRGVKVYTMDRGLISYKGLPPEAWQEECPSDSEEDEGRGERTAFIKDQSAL
# PROCEDURE_DETAILS: furin cleavage Z-score vs untreated control; higher = more cleavage, active = 3.5 or more, inactive = 1 or less, 8 variable residues between constant flanks
# CONDITION: 30 min
The other results are listed elsewhere or left out. No count for the full screen is at hand.
QUANTITY_NAME: furin cleavage Z-score
Enter a number only.

Answered examples (6):
QUERY_SEQUENCE: CAGGPLTNSRAGNASASA [HC1502]
furin cleavage Z-score: 0.841
//
QUERY_SEQUENCE: CAPAQRTKRKAGNASASA [FS-836]
furin cleavage Z-score: 9.82
//
QUERY_SEQUENCE: CAGWIRSRKAAGNASASA [FS-1529]
furin cleavage Z-score: 1.14
//
QUERY_SEQUENCE: CAWWRRRRRSAGNASASA [FS-1503]
furin cleavage Z-score: 8.61
//
QUERY_SEQUENCE: CAEIKRKWRSAGNASASA [FS-21]
furin cleavage Z-score: 5.04
//
QUERY_SEQUENCE: CAGERRKRRSAGNASASA [FS-425]
furin cleavage Z-score: 11

Alright, here's another sequence for you.
Suppose we examine the sequence CAEYPCHRPSAGNASASA [HC2329] ; what furin cleavage Z-score value has been reported?
0.059
